# Assay explanation: In vitro antibacterial activity against gram-negative organism Pseudomonas aeruginosa DPHD-2862
# Assay type: functional
# Measurement conditions: Pseudomonas aeruginosa; read-out: MIC

Compound	Unit descriptor	MIC
Cc1c(N2CC[C@H]([C@@H](C)N)C2)c(F)cn2c(=O)c(C(=O)O)cc(C3CC3)c12	µg/mL	3.1
Cc1c(NCCN)c(F)cn2c(=O)c(C(=O)O)cc(C3CC3)c12	µg/mL	50
Cc1c(N2CC[C@@H]([C@H](C)N)C2)c(F)cn2c(=O)c(C(=O)O)cc(C3CC3)c12	µg/mL	1.56
CCc1c(N2CCC(N)C2)c(F)cn2c(=O)c(C(=O)O)cc(C3CC3)c12 (stereo not given)	µg/mL	50
Cc1c(N2CCC(c3ccccn3)C2)c(F)cn2c(=O)c(C(=O)O)cc(C3CC3)c12 (stereo not given)	µg/mL	12.5

====

The following compounds are shown together with reported MIC values.
# System: DNA gyrase (Escherichia coli) (UniProt P0AES6+P0AES4)
# Assay explanation: In vitro antibacterial activity against gram-negative organism Prov. stuartii CMX-640
# Type: functional
# Measurement conditions: Providencia stuartii

Compound	MIC
Cc1c(N2CC[C@H](O)C2)c(F)cn2c(=O)c(C(=O)O)cc(C3CC3)c12	0.39 µg/mL
Cc1ccc(S(=O)(=O)O)cc1.NC1CCN(c2nc3c(cc2F)c(=O)c(C(=O)O)cn3-c2ccc(F)cc2F)C1 (centres undefined) [TOSUFLOXACIN TOSYLATE]	1.56 µg/mL
Cc1c(N2CCC(n3ccnn3)C2)c(F)cn2c(=O)c(C(=O)O)cc(C3CC3)c12 (centres undefined)	0.39 µg/mL
Cc1c(N2C[C@@H]3CCN[C@@H]3C2)c(F)cn2c(=O)c(C(=O)O)cc(C3CC3)c12 (stereo in doubt; (S,S)45o)	0.39 µg/mL
O=C(O)c1cc(-c2ccc(F)cc2F)c2nc(N3CCC(O)C3)c(F)cn2c1=O (centres undefined)	6.2 µg/mL
NC1CCN(c2c(F)cn3c(=O)c(C(=O)O)cc(C4CC4)c3c2Cl)C1 (centres undefined)	3.1 µg/mL
CN1CCN(c2nc3c(-c4ccc(F)cc4F)cc(C(=O)O)c(=O)n3cc2F)CC1	25 µg/mL
COc1c(N2CCC(N)C2)c(F)cn2c(=O)c(C(=O)O)cc(C3CC3)c12 (centres undefined)	1.56 µg/mL
O=C(O)c1cc(C2CC2)c2nc(N3CCNCC3)c(F)cn2c1=O	12.5 µg/mL

====

# System: DNA gyrase (Escherichia coli) (UniProt P0AES6+P0AES4)
# Measurement conditions: Escherichia coli K-12
# Description: Concentration which causes 50% of the gyrase (Escherichia coli H560)-mediated maximal DNA cleavage.
# note: exactly 0.3 mg/L is not below, so it is 0 (no); use 1 (yes) for CC50 strictly under it

Molecule	System	Assigned class
NC1CCN(c2nc3c(-c4ccc(F)cc4F)cc(C(=O)O)c(=O)n3cc2F)C1 (stereo not given)	DNA gyrase (Escherichia coli) (UniProt P0AES6+P0AES4)	0 (no)
NC1CCN(c2nc3c(C4CC4)cc(C(=O)O)c(=O)n3cc2F)C1 (stereo not given)	DNA gyrase (Escherichia coli) (UniProt P0AES6+P0AES4)	1 (yes)
Cc1c(N2CCC(n3ccnn3)C2)c(F)cn2c(=O)c(C(=O)O)cc(C3CC3)c12 (stereo not given)	DNA gyrase (Escherichia coli) (UniProt P0AES6+P0AES4)	1 (yes)
CC(=O)N[C@H]1C[C@H](C)N(c2nc3c(-c4ccc(F)cc4F)cc(C(=O)O)c(=O)n3cc2F)C1	DNA gyrase (Escherichia coli) (UniProt P0AES6+P0AES4)	0 (no)
O=C(O)c1cc(C2CC2)c2cc(N3CCNCC3)c(F)cn2c1=O	DNA gyrase (Escherichia coli) (UniProt P0AES6+P0AES4)	1 (yes)
NC1CCN(c2c(F)cn3c(=O)c(C(=O)O)cc(C4CC4)c3c2Cl)C1 (stereo not given)	DNA gyrase (Escherichia coli) (UniProt P0AES6+P0AES4)	0 (no)
Cc1c(N2CCC(n3cccc3)C2)c(F)cn2c(=O)c(C(=O)O)cc(C3CC3)c12 (stereo not given)	DNA gyrase (Escherichia coli) (UniProt P0AES6+P0AES4)	1 (yes)
Cc1c(N2CCC(N)C2)c(F)cn2c(=O)c(C(=O)O)cc(C3CC3)c12 (stereo not given)	DNA gyrase (Escherichia coli) (UniProt P0AES6+P0AES4)	1 (yes)
NC1CCN(c2nc3c(-c4c(F)c(F)c(F)c(F)c4F)cc(C(=O)O)c(=O)n3cc2F)C1 (stereo not given)	DNA gyrase (Escherichia coli) (UniProt P0AES6+P0AES4)	0 (no)
Cc1c(N2CC(N)C2)c(F)cn2c(=O)c(C(=O)O)cc(C3CC3)c12	DNA gyrase (Escherichia coli) (UniProt P0AES6+P0AES4)	0 (no)
Cc1c(F)c(N2CCC(N)C2)cc2c(C3CC3)cc(C(=O)O)c(=O)n12 (stereo not given)	DNA gyrase (Escherichia coli) (UniProt P0AES6+P0AES4)	0 (no)
Cc1c(N2CC[C@H](N)C2)c(F)cn2c(=O)c(C(=O)O)cc(C3CC3)c12	DNA gyrase (Escherichia coli) (UniProt P0AES6+P0AES4)	1 (yes)
CCc1cc(C(=O)O)c(=O)n2cc(F)c(N3CCC(N)C3)c(C)c12 (stereo not given)	DNA gyrase (Escherichia coli) (UniProt P0AES6+P0AES4)	0 (no)
Cc1c(N2CCC(c3ccccn3)C2)c(F)cn2c(=O)c(C(=O)O)cc(C3CC3)c12 (stereo not given)	DNA gyrase (Escherichia coli) (UniProt P0AES6+P0AES4)	0 (no)
Cc1c(N2CCC(CN)C2)c(F)cn2c(=O)c(C(=O)O)cc(C3CC3)c12 (stereo not given)	DNA gyrase (Escherichia coli) (UniProt P0AES6+P0AES4)	1 (yes)
Cc1c(N2CC[C@H]([C@@H](C)N)C2)c(F)cn2c(=O)c(C(=O)O)cc(C3CC3)c12	DNA gyrase (Escherichia coli) (UniProt P0AES6+P0AES4)	0 (no)
Cc1c(N2C[C@@H]3CCN[C@@H]3C2)c(F)cn2c(=O)c(C(=O)O)cc(C3CC3)c12 (stereo in doubt; 45o)	DNA gyrase (Escherichia coli) (UniProt P0AES6+P0AES4)	1 (yes)

====

# System: DNA gyrase (Escherichia coli) (UniProt P0AES6+P0AES4)
# Assay explanation: In vitro antibacterial against gram-negative organism Escherichia coli JUHL
# Format: functional
# Measurement conditions: Escherichia coli K-12
The following compounds are shown together with reported MIC values.

Compound	MIC [µg/mL]
Cc1c(N2CCC(N)C2)c(F)cn2c(=O)c(/C(O)=C/[N+](=O)[O-])cc(C3CC3)c12 (stereo unspecified)	0.02
Cc1c(N2C[C@@H]3CCN[C@@H]3C2)c(F)cn2c(=O)c(C(=O)O)cc(C3CC3)c12 (stereo in doubt; 45o)	0.02
Cc1c(N2C[C@H]3CCC[C@H](N)[C@H]3C2)c(F)cn2c(=O)c(C(=O)O)cc(C3CC3)c12	0.02
Cc1c(-n2ccnc2)c(F)cn2c(=O)c(C(=O)O)cc(C3CC3)c12	0.39
CCc1cc(C(=O)O)c(=O)n2ccc(N3CCC(N)C3)cc12.Cl (stereo unspecified)	3.1
NC1CCN(c2c(F)cn3c(=O)c(C(=O)O)cc(C4CC4)c3c2F)C1 (stereo unspecified)	0.01
Cc1c(N2C[C@@H](C)N[C@@H](C)C2)c(F)cn2c(=O)c(C(=O)O)cc(C3CC3)c12	0.02
Cc1c(N2CC[C@@H](N)C2)c(F)cn2c(=O)c(C(=O)O)cc(C3CC3)c12	0.005
Cc1c(NCCN)c(F)cn2c(=O)c(C(=O)O)cc(C3CC3)c12	0.2
Cc1c(N2C[C@@H]3CCCN[C@@H]3C2)c(F)cn2c(=O)c(C(=O)O)cc(C3CC3)c12 (stereo in doubt; 45n)	0.05
Cc1c(N2CCC(CN)C2)c(F)cn2c(=O)c(C(=O)O)cc(C3CC3)c12 (stereo unspecified)	0.005
NC1CCN(c2c(F)cn3c(=O)c(C(=O)O)cc(C4CC4)c3c2Cl)C1 (stereo unspecified)	0.05
Cc1c(N2CC[C@H]([C@@H](C)N)C2)c(F)cn2c(=O)c(C(=O)O)cc(C3CC3)c12	0.01
O=C(O)c1cc(C2CC2)c2nc(N3CCNCC3)c(F)cn2c1=O	0.05
Cc1c(N2CC[C@H](N)C2)c(F)cn2c(=O)c(C(=O)O)cc(C3CC3)c12	0.002
NC1CCN(c2nc3c(-c4c(F)c(F)c(F)c(F)c4F)cc(C(=O)O)c(=O)n3cc2F)C1 (stereo unspecified)	6.2

====

# System: DNA gyrase (Staphylococcus aureus) (UniProt P0A0K8+P20831)
# Sequence (P0A0K8 2-644 limits assumed): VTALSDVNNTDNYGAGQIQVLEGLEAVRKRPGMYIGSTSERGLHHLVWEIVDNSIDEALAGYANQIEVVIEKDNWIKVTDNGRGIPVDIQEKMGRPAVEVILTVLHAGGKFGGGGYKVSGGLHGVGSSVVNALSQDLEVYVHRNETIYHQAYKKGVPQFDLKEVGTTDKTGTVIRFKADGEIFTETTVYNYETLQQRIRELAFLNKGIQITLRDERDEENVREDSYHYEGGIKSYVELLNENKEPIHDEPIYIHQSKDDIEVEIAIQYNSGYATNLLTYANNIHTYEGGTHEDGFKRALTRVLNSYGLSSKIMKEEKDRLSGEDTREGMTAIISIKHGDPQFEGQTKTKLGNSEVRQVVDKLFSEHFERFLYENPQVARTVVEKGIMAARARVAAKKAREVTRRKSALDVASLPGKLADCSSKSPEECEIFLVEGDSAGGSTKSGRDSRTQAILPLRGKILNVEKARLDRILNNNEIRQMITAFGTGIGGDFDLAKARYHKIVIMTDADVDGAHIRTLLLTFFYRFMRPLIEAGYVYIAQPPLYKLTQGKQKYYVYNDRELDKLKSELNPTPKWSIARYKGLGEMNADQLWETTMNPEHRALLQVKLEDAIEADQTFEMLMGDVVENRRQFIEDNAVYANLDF
# Sequence (P20831 whole entry partner): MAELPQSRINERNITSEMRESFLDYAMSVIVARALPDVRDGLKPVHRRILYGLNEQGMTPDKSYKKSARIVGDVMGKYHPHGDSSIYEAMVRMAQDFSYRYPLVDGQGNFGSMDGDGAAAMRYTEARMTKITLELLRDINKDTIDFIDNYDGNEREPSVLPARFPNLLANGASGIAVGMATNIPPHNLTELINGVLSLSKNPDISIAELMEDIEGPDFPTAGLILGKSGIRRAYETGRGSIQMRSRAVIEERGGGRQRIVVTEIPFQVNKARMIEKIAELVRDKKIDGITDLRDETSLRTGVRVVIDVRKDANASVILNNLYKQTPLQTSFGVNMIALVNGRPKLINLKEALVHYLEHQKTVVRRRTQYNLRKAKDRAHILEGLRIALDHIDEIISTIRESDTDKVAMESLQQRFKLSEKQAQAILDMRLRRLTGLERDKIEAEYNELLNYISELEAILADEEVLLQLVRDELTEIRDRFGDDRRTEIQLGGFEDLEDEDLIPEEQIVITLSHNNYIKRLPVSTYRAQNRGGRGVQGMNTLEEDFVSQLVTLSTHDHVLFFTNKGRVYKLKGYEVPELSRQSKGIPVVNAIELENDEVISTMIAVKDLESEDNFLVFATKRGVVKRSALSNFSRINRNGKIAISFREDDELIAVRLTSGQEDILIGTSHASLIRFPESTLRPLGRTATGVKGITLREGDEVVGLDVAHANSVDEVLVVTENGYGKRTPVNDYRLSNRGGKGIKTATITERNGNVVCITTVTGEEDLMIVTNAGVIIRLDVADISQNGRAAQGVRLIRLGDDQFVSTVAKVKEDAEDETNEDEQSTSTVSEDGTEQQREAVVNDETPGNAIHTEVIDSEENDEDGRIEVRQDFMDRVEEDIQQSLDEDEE
# Assay explanation: In vitro antibacterial activity against gram-positive organism Staphylococcus aureus NCTC-10649M
# Assay type: functional
# note: exactly 0.02 µg/mL is not below, so it is Not fulfilled; use Fulfilled for MIC strictly under it

Compound	Assigned class
Cc1c(N2CCC(N(C)C)C2)c(F)cn2c(=O)c(C(=O)O)cc(C3CC3)c12 (centres undefined)	Not fulfilled
CN1CCN(c2nc3c(C4CC4)cc(C(=O)O)c(=O)n3cc2F)CC1	Not fulfilled
Cc1c(N2CC[C@@H]([C@H](C)N)C2)c(F)cn2c(=O)c(C(=O)O)cc(C3CC3)c12	Fulfilled
CO[C@@H]1CN(c2c(F)cn3c(=O)c(C(=O)O)cc(C4CC4)c3c2C)C[C@H]1N	Not fulfilled
Cc1c(N2C[C@H]3CCC[C@@H](N)[C@H]3C2)c(F)cn2c(=O)c(C(=O)O)cc(C3CC3)c12	Fulfilled
COc1ccc(-c2cc(C(=O)O)c(=O)n3cc(F)c(N4CCC(N)C4)nc23)cc1 (centres undefined)	Not fulfilled
NC1CCN(c2nc3c(-c4ccc(F)cc4F)cc(C(=O)O)c(=O)n3cc2F)C1 (centres undefined)	Not fulfilled
Cc1c(N2C[C@H]3CCN[C@H]3C2)c(F)cn2c(=O)c(C(=O)O)cc(C3CC3)c12 (single isomer, unassigned)	Not fulfilled
NC1CCN(c2c(F)cn3c(=O)c(C(=O)O)cc(C4CC4)c3c2F)C1 (centres undefined)	Not fulfilled
O=C(O)c1cc(C2CC2)c2nc(N3CCOCC3)c(F)cn2c1=O	Not fulfilled
Cc1c(N2CCC(CN)C2)c(F)cn2c(=O)c(C(=O)O)cc(C3CC3)c12 (centres undefined)	Fulfilled
CN1CCN(c2nc3c(-c4ccc(F)cc4)cc(C(=O)O)c(=O)n3cc2F)CC1	Not fulfilled
O=C(O)c1cc(C2CC2)c2nc(N3CCNCC3)c(F)cn2c1=O	Not fulfilled
Cc1c(N2CC[C@H](N)C2)c(F)cn2c(=O)c(C(=O)O)cc(C3CC3)c12	Fulfilled
CC(=O)N[C@H]1C[C@H](C)N(c2nc3c(-c4ccc(F)cc4F)cc(C(=O)O)c(=O)n3cc2F)C1	Not fulfilled
Cc1c(N2CC[C@@H]3CNC[C@@H]32)c(F)cn2c(=O)c(C(=O)O)cc(C3CC3)c12	Not fulfilled
